- systemName: Sarcoplasmic/endoplasmic reticulum calcium ATPase 2 (Mus musculus)
- Sequence (O55143 whole entry): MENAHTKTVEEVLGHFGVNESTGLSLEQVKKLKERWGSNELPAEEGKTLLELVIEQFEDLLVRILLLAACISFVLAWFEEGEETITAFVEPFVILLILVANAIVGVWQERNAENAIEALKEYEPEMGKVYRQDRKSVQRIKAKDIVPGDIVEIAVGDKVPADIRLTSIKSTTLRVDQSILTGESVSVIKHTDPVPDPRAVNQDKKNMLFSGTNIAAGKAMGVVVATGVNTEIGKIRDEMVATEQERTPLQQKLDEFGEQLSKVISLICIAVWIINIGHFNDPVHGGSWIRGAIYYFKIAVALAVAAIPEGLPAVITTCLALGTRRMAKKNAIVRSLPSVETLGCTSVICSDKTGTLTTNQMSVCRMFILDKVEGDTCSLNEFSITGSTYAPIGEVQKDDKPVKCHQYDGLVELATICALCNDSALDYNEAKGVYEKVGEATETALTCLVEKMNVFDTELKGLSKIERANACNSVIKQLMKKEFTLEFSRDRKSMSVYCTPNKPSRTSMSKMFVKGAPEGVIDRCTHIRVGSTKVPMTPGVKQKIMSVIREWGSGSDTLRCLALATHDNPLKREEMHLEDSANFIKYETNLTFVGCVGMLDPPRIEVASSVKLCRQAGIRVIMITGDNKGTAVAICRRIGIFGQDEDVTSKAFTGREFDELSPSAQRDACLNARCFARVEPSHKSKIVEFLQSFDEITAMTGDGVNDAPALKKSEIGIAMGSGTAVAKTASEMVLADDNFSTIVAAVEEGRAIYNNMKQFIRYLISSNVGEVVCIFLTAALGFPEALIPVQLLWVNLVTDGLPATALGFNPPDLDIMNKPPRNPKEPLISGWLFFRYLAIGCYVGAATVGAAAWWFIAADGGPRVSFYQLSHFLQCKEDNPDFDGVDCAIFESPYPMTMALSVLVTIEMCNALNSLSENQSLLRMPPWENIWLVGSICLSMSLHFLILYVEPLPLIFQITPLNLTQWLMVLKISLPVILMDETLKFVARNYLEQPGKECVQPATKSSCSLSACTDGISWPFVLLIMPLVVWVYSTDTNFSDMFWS
- procedureText: Activation of SERCA2a in mouse HL-1 cells assessed as increase in caffeine-induced calcium release incubated for 2 hrs by FLIPR Calcium 6 dye based caffeine assay
quantityName: EC50

Lookup: Bench note: what EC50 did COc1ccc2c(c1)CN(Cc1ccc(C(=O)O)cc1)CCS2 show?
Found: 34.3 µM

Lookup: Bench note: what EC50 did COc1ccc2c(c1)CN(CCCCC1(O)CC1)CCS2 show?
Found: > 1000 µM

Lookup: Bench note: what EC50 did COc1ccc(OCCCN(CCCCC2(O)CC2)CCCCC2(O)CC2)cc1 show?
Found: 1.5 µM

* * *

Provide the reported Papp at 24 h of each item.
- procedureText: Permeability of the compound measured after 24 hrs by PAMPA
- Type: ADME
- assaySetup: read-out: permeability
Please respond with the number in ×10⁻⁶ cm/s and leave the unit unwritten.

Lookup: Bench note: what Papp at 24 h did COc1ccc2c(c1)CN(C)CCS2 show?
Found: 1.2

Lookup: Bench note: what Papp at 24 h did COc1ccc2c(c1)CN(Cc1ccc(C(=O)O)cc1)CCS2 show?
Found: 6.8

Lookup: Bench note: what Papp at 24 h did COc1ccc2c(c1)CN(C(=O)C(=O)O)CCS2 show?
Found: 1

Lookup: Bench note: what Papp at 24 h did COc1ccc(SCCCN(CCCCC2(O)CC2)CCCCC2(O)CC2)cc1 show?
Found: 3.6

Lookup: Bench note: what Papp at 24 h did COc1ccc(SCCCNCCCCC2(O)CC2)cc1 show?
Found: 6.9

Lookup: Bench note: what Papp at 24 h did COc1ccc(OCCCN(CCCCC2(O)CC2)CCCCC2(O)CC2)cc1 show?
Found: 4

Lookup: Bench note: what Papp at 24 h did COc1ccc2c(c1)CN(CCCCNCCCCC1(O)CC1)CCS2 show?
Found: 0.8

Lookup: Bench note: what Papp at 24 h did COc1ccc(OCCCNCCCCC2(O)CC2)cc1 show?
Found: 4

Lookup: Bench note: what Papp at 24 h did COc1ccc2c(c1)CN(CCCCC1(O)CC1)CCS2 show?
Found: 3.6

Lookup: Bench note: what Papp at 24 h did COc1ccc2c(c1)CN(CCCCN(CCCCC1(O)CC1)CCCCC1(O)CC1)CCS2 show?
Found: 0.6

* * *

- systemName: Ryanodine receptor 2 (Homo sapiens, UniProt Q92736)
- procedureText: Modulator activity at wild type RyR2 (unknown origin) expressed in HEK293T co-expressed with R-CEPIA1er assessed as decrease in RyR2-mediated calcium leak in presence of calcium chloride by time-lapse fluorescence analysis
Provide the reported EC50 of each item.
Please respond with the number in µM and leave the unit unwritten.

Lookup: Bench note: what EC50 did COc1ccc2c(c1)CN(CCCCNCCCCC1(O)CC1)CCS2 show?
Found: 8.17

Lookup: Bench note: what EC50 did COc1ccc2c(c1)CN(CCCCN(CCCCC1(O)CC1)CCCCC1(O)CC1)CCS2 show?
Found: 2.7
